Measured GI50 accompanies every entry in the list below.
System: K562
protocol-description: NCI tumour cell line growth inhibition, 48 h
Active and inactive are the calls of the source. Cut-off read from the data, not from the text of the source: active = GI50 up to about 1.1 µM and inactive = higher.

Would you please look over these solved cases?
                                   molecule         result_value
0  O=C1C2=C(C3=NCCc4c[nH]c1c43)c1c(Br)cc(Br)cc1CCN2   2.68 µM (inactive)
1  CC1(C)CC2=NC(SSC3=C(C#N)C(c4ccc(Br)cc4)C4=C(O)CC(C)(C)CC4=N3)=C(C#N)C(c3ccc(Br)cc3)C2=C(O)C1 (stereo not given)     75 µM (inactive)
2  CCOC(=O)CCC(NC(=O)C(CCC(=O)OCC)NC(=O)C(Cc1ccc([N+](=O)[O-])cc1)NC(C)=O)C(=O)NNC(=O)OC(C)(C)C (stereo not given)  > 100 µM (inactive)
3  O=C1OC(O)C(Oc2c(Cl)cccc2Cl)=C1Cl (stereo not given)   17.3 µM (inactive)
4   COc1ccc(C(=O)Cn2c(C(C)=O)nc3ccccc32)cc1    4.4 µM (inactive)
5  CC1(C)CC(=O)C(=CNc2nc(-c3cccc([N+](=O)[O-])c3)cs2)C(=O)C1   16.6 µM (inactive)
6  COc1ccc(N2C(=O)C(C)SC2c2cc3cc(Br)ccc3nc2Cl)cc1 (stereo not given)   31.3 µM (inactive)
7  COc1cccc([C@@H]2CC(=O)c3cc4c(cc3N2)OCO4)c1   98.4 µM (inactive)

Task: Which GI50 value belongs to `CSc1nncc2[nH]cnc12` ?
Output: > 100 µM (inactive)

Task: Which GI50 value belongs to `COc1ccc2c(c1)C1(C=N2)CCN(C(C)=O)CC1` ?
Output: > 100 µM (inactive)
